system: dandelion; test: Greenhouse pot test, postemergent spray, visual control rating converted to percent control; assay type: in vivo; conditions: Test 4, 72 HAT; scale 1=no control, 9=death of plant
Measured Control (1-9) Dandelion values are reported for all entries that follow.
measurement_name: Control (1-9) Dandelion

compound="O=C(O)c1c(Cl)ccc2cc(Cl)cnc12 [Quinclorac @ 0.375 lbs/A]" system_under_test=dandelion measured_value=2
compound="Cc1nn(-c2cc(CC(Cl)C(=O)O)c(Cl)cc2F)c(=O)n1C(F)F (stereo not drawn) [Carfentrazone @ 0.02 lbs/A]" system_under_test=dandelion measured_value=5
compound="O=C(O)c1c(Cl)ccc2cc(Cl)cnc12 [Quinclorac @ 0.75 lbs/A]" system_under_test=dandelion measured_value=2
compound="O=C(O)c1c(Cl)ccc2cc(Cl)cnc12 [Quinclorac @ 0.18 lbs/A]" system_under_test=dandelion measured_value=2
compound="Cc1nn(-c2cc(CC(Cl)C(=O)O)c(Cl)cc2F)c(=O)n1C(F)F (stereo not drawn) [Carfentrazone @ 0.01 lbs/A]" system_under_test=dandelion measured_value=3
compound=Cc1cc(Cl)ccc1OCC(=O)OCCCCCC(C)C system_under_test=dandelion measured_value=5
